Data provenance is PubChem BioAssay (NCI).

Test system: COLO 205 colon
Assay: NCI-60 one-dose screen, 48 h (100 = growth as untreated, 0 = no growth, -100 = all killed)
Details: 10 µM unless noted
Procedure: Cells are grown in 96 well plates and exposed to the test compound for 48 hours. Compounds are tested at a single concentration, which is 10^-5 M for most compounds. The reported endpoint is percent growth (GI% or GIPRCNT), where numbers from 0 - 100% represent growth inhibition, and numbers from -100% - 0 represent cell death. For example, a value of 40 represents 60% growth inhibition. A value of 0 means no net growth occurred over the course of the experiment. […]
About 83,000 compounds went through this panel and 20% of them were active in at least one assay; those are over-represented in the sample as a whole. The source made the active and inactive calls. How the source made its calls: active means growth percent below 10; inactive means the rest.
MEASURED_METRIC: growth

Before answering, review these 3 worked examples.
>  <COMPOUND>
CC1(C)C(=O)/C(=C\c2cccnc2)C[C@]2(C)[C@H]3CC[C@@H]4[C@@H](C(=O)/C=C/c5ccncc5)CC[C@@]4(C)[C@]3(C)CC[C@@H]12

>  <RESULT>
12.3% (inactive)

$$$$
>  <COMPOUND>
COc1ccc2[nH]cc(-c3nc(-c4c[nH]c5ncccc45)cs3)c2c1

>  <RESULT>
-10.2% (active)

$$$$
>  <COMPOUND>
CN(C)CCCC1(c2ccc(F)cc2)OCc2cc(-c3ccc(C(F)(F)F)nc3)ccc21 (configuration not stated)

>  <RESULT>
60.7% (inactive)

$$$$

Pending compound:
Sure, the documented growth for CC1(C)C(=O)CC[C@]2(C)[C@H]3C(=O)C=C4[C@@H]5C[C@@](C)(C(=O)NCCNCCN)CC[C@]5(C)CC[C@@]4(C)[C@]3(C)CC[C@@H]12 is 108% (inactive)
